These measurements were taken from PubChem BioAssay AID1963839.

# System: 817829-284-R-J1-PDC complex spheroid viability
# protocolDetails: Anticancer human tumor 817829-284-R-J1-PDC patient-derived colon adenocarcinoma cell line growth inhibition [POLQ]
# measurementContext: second compound 0.0316 µM; first compound 0.1 µM; stronger effect = lower value
Friendly reminder: viability, T/C below 80% is 1, at or above is -1.

Find out if reported viability, T/C for COc1cccc(OCCCN)c1-c1cc(Nc2cnc(C#N)cn2)n[nH]1 + Cc1cccc(N(C)C(=O)C2C(O)CCN2c2nc(C)cc(C(F)(F)F)c2C#N)c1 is less than 80%
1

Likewise for COc1cc(C2c3cc4c(cc3C(OC3OC5COC(C)OC5C(O)C3O)C3COC(=O)C23)OCO4)cc(OC)c1O (stereo not given) + COC1C(OC(N)=O)C(O)C(Oc2ccc3c(O)c(NC(=O)c4ccc(O)c(CC=C(C)C)c4)c(=O)oc3c2C)OC1(C)C ?
1

Likewise for CC(C)n1c(=O)n(C)c2cnc3cc(F)c(-c4ccc(OCCCN5CCCCC5)nc4)cc3c21 + Nc1ccc(C#CCN(C(=O)Cc2ncc(C(F)(F)F)cc2C(F)(F)F)c2ccc(F)cc2)nn1 ?
-1

Likewise for COc1cccc2c1C(=O)c1c(O)c3c(c(O)c1C2=O)CC(O)(C(=O)CO)CC3OC1CC(N)C(O)C(C)O1 (stereo not given) + COC1C(OC(N)=O)C(O)C(Oc2ccc3c(O)c(NC(=O)c4ccc(O)c(CC=C(C)C)c4)c(=O)oc3c2C)OC1(C)C ?
-1

----------
# System: 817829-284-R-J1-PDC complex spheroid viability
# protocolDetails: Anticancer human tumor 817829-284-R-J1-PDC cell line growth inhibition [POLQ];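 note: spheroids exposed to compounds for 7 days; 100% = DMSO vehicle-treated spheroids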
# measurementContext: second compound 0.316 µM; first compound 0.01 µM; stronger effect = lower value
quantityKind: viability, T/C (%)
Could you give me the number in %? Just the number is fine.

What measured viability, T/C is associated with CCc1c2c(nc3ccc(O)cc13)-c1cc3c(c(=O)n1C2)COC(=O)[C@]3(O)CC + COC1C(OC(N)=O)C(O)C(Oc2ccc3c(O)c(NC(=O)c4ccc(O)c(CC=C(C)C)c4)c(=O)oc3c2C)OC1(C)C on 817829-284-R-J1-PDC complex spheroid viability?
15

Likewise for COc1cccc(OCCCN)c1-c1cc(Nc2cnc(C#N)cn2)n[nH]1 + COC1C(OC(N)=O)C(O)C(Oc2ccc3c(O)c(NC(=O)c4ccc(O)c(CC=C(C)C)c4)c(=O)oc3c2C)OC1(C)C ?
8.79

Likewise for CCc1c2c(nc3ccc(O)cc13)-c1cc3c(c(=O)n1C2)COC(=O)[C@]3(O)CC + Cc1cccc(N(C)C(=O)C2C(O)CCN2c2nc(C)cc(C(F)(F)F)c2C#N)c1 ?
15.3

----------
Provide the recorded viability, T/C for the entries that follow.
# System: 817829-284-R-J1-PDC complex spheroid viability
# protocolDetails: Anticancer human tumor 817829-284-R-J1-PDC cell line growth inhibition [POLQ];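 note: spheroids exposed to compounds for 7 days; 100% = DMSO vehicle-treated spheroids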
# measurementContext: second compound 10 µM; first compound 0.316 µM; stronger effect = lower value
Could you give me the number in %? Just the number is fine.

What measured viability, T/C is associated with CC1COCCN1c1cc(C2(S(C)(=N)=O)CC2)nc(-c2ccnc3[nH]ccc23)n1 (stereo not drawn) + Nc1ccc(C#CCN(C(=O)Cc2ncc(C(F)(F)F)cc2C(F)(F)F)c2ccc(F)cc2)nn1 on 817829-284-R-J1-PDC complex spheroid viability?
48.1

Likewise for CC1COCCN1c1cc(-c2ccnn2C)c2ccnc(-c3ccn[nH]3)c2n1 (stereo not drawn) + COC1C(OC(N)=O)C(O)C(Oc2ccc3c(O)c(NC(=O)c4ccc(O)c(CC=C(C)C)c4)c(=O)oc3c2C)OC1(C)C ?
5.44

Likewise for CCc1cc2c(N3CCc4c(cc(Cn5ccnc5)cc4-c4cn(C)nc4C(F)(F)F)C3=O)cc(C)nc2c(OC)n1 + Cc1cccc(N(C)C(=O)C2C(O)CCN2c2nc(C)cc(C(F)(F)F)c2C#N)c1 ?
66.2
